Target: human P2X3 receptor (Homo sapiens (Human))
Sequence (P56373 whole entry): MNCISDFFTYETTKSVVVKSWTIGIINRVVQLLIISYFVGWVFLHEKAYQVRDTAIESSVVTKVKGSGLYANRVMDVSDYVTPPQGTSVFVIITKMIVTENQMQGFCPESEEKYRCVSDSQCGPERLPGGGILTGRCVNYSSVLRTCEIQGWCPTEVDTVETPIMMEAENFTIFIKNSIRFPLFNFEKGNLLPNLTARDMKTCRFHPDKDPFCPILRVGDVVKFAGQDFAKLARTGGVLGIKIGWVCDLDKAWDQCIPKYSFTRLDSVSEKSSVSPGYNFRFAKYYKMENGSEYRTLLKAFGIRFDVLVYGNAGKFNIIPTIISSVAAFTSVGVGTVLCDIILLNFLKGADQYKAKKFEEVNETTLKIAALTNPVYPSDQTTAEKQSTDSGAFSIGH
Experiment: Evaluation of human P2X3 receptor inhibitory activity (Fluo-3 calcium fluorescence, FDSS 3000, ATP stimulation);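 also: stimulus was 50 nM ATP with fluorescence followed for 3 min, and the response per well was peak post-ATP fluorescence divided by the reading at measurement start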
Type: cell-based
Details: C6BU-1 cells stably expressing human P2X3 receptor
Classification by IC50 follows these ranges: low = under 0.01 µM, intermediate = from 0.01 µM up to 0.03 µM, high = 0.03 µM and over

Where would Cc1ccc(Cn2c(=O)n([C@H](C)[C@H](C)C(=O)O)c(=O)[nH]/c2=N\c2ccc(OC3CCC3)cc2)cc1 land among the classes by reported IC50?
intermediate

Class label required: CCn1c(=O)[nH]/c(=N\c2ccc3oc(C)c(CC(=O)O)c3c2)n(Cc2ccc(Cl)cc2)c1=O
high

Band for Cc1nc2ccc(/N=c3\[nH]c(=O)n([C@H](C)[C@H](C)C(=O)O)c(=O)n3Cc3ccc(Cl)cc3)cc2s1 ?
intermediate

Place this compound in its band: C[C@@H](Oc1ccc(/N=c2\[nH]c(=O)n(CC(N)=O)c(=O)n2Cc2ccc(Cl)cc2)cc1)C(F)(F)F
high

Given Cc1nc2ccc(/N=c3\[nH]c(=O)n(CCNCCO)c(=O)n3Cc3ccc(Cl)cc3)cc2s1 , name the class its IC50 places it in.
high

Form: Item = Cc1cc2cc(/N=c3\[nH]c(=O)n([C@@H](C)[C@@H](C)C(=O)O)c(=O)n3Cc3ccc(Cl)cc3)ccc2o1 ; Class = ?
high

Category of CCOC(=O)CCn1c(=O)[nH]/c(=N\c2ccc(CC(C)C)c(C)c2)n(Cc2ccc(Cl)cc2)c1=O , please.
intermediate

Assign a bin to COC(=O)[C@H](C)[C@H](C)n1c(=O)[nH]/c(=N\c2ccc(CC(C)C)c(Cl)c2)n(Cc2ccc(Cl)cc2)c1=O
high

GET /class?item= COc1cc(/N=c2\[nH]c(=O)n(CC(C)(C)C(=O)O)c(=O)n2Cc2ccc(C)cc2)ccc1OC(C)C
intermediate

Lab note: sort Cc1ccc(Oc2ccc(/N=c3\[nH]c(=O)n(CC(=O)NCCO)c(=O)n3Cc3ccc(Cl)cc3)cc2)cn1 into the matching IC50 band.
low

// bin(item) where item = CC(C)(Cn1c(=O)[nH]/c(=N\c2ccc(OCC3CC3)cc2)n(Cc2ccc(Cl)cc2)c1=O)C(=O)O
intermediate

Would you mind sorting COC(=O)C(C)(C)Cn1c(=O)[nH]/c(=N\c2ccc(OC(C)C)c(CO)c2)n(Cc2ccc(Cl)cc2)c1=O into the appropriate category?
high

Which class does COC(=O)[C@@H](C)Cn1c(=O)[nH]/c(=N\c2ccc(OCCO)cc2)n(Cc2ccc(Cl)cc2)c1=O fall in?
high

Categorize the following entry: CCOc1ccc(/N=c2\[nH]c(=O)n(C[C@H](C)C(=O)OC)c(=O)n2Cc2ccc(C)cc2)cc1F
intermediate

Quick check: band for COC(=O)[C@@H](C)Cn1c(=O)[nH]/c(=N\c2ccc(Oc3cccnc3C)cc2)n(Cc2ccc(C)cc2)c1=O
intermediate

# bin label for CCc1cc2cc(/N=c3\[nH]c(=O)n(C[C@H](C)C(=O)OC)c(=O)n3Cc3ccc(Cl)cc3)ccc2s1
high

Band for CCn1c(=O)[nH]/c(=N\c2ccc(Oc3cc(C(=O)OC)on3)cc2)n(Cc2ccc(Cl)cc2)c1=O ?
low

Where would COC(=O)[C@@H](C)[C@@H](C)n1c(=O)[nH]/c(=N\c2ccc(N3CCCCC3)cc2)n(Cc2ccc(C)cc2)c1=O land among the classes by reported IC50?
high

Which bin should I file CCOC(=O)CCCn1c(=O)[nH]/c(=N\c2ccc(Oc3ccncc3)cc2)n(Cc2ccc(C)cc2)c1=O under?
low

Please classify: CCOC(=O)CCCn1c(=O)[nH]/c(=N\c2ccc3nc(C)sc3c2)n(Cc2ccc(C)cc2)c1=O
low

Category lookup for the compound CCOC(=O)c1nc(Cn2c(=O)[nH]/c(=N\c3ccc(OC(C)C)c(C)c3)n(Cc3ccc(Cl)cc3)c2=O)cs1
intermediate

Which class is correct for the following compound? CC(C)Oc1ccc(/N=c2\[nH]c(=O)n(Cc3ccc[nH]c3=O)c(=O)n2Cc2ccc(Cl)cc2)cc1F
low

Field: class (IC50) — entry: CCc1nc2ccc(/N=c3\[nH]c(=O)n(CCCCC(=O)OC)c(=O)n3Cc3ccc(C)cc3)cc2s1
low

Kindly identify the class of O=C(O)CCn1c(=O)[nH]/c(=N\c2ccc(Oc3cccc(F)c3)cc2)n(Cc2ccc(Cl)cc2)c1=O .
intermediate

Which class is correct for the following compound? O=c1ccccn1-c1ccc(/N=c2\[nH]c(=O)n(CCOC3CCCCO3)c(=O)n2Cc2ccc(Cl)cc2)cc1 (stereo not drawn)
intermediate

# classify by IC50 band: Cc1ccc(Cn2c(=O)n([C@H](C)[C@H](C)C(=O)O)c(=O)[nH]/c2=N\c2ccc(CC(C)C)c(Cl)c2)cc1
low

Which class holds CCOC(=O)c1cc(Cn2c(=O)[nH]/c(=N\c3ccc(OC(C)C)c(C)c3)n(Cc3ccc(Cl)cc3)c2=O)on1 ?
intermediate
